biological target: human Thyroid Receptor alpha (THRa1), THRA (gene 7067); assay: ATG_THRa1_TRANS: Attagene TRANS-FACTORIAL HepG2 Assay for human Thyroid Receptor alpha (THRa1) (AID 2283014)
Inconclusive results are not listed. Active and inactive are the calls of the source. How the source made its calls: active means hit-call score of the fitted dose curve at least 0.9, where 1 is the maximum; inconclusive means response in the unintended direction; inactive means score below 0.9.
Tick one outcome: Yes = active, No = inactive

QUERY: In this assay, the call recorded for C[C@]12CC[C@@H]3c4ccc(O)cc4C[C@@H](CCCCCCCCCS(=O)CCCC(F)(F)C(F)(F)F)[C@H]3[C@@H]1CC[C@@H]2O (some centres undefined) was what?
RESULT: No

QUERY: In this assay, the call recorded for CCOC(=O)COc1cc(-n2ncc(C(F)(F)F)c(C)c2=O)c(F)cc1Cl was what?
RESULT: No

QUERY: In this assay, the call recorded for CN(C)C(=O)Nc1ccc(Cl)c(Cl)c1 was what?
RESULT: No

QUERY: In this assay, the call recorded for C[C@]12C[C@H](O)[C@H]3[C@@H](CCC4=CC(=O)CC[C@@]43C)[C@@H]1CC[C@@H]2C(=O)CO was what?
RESULT: No

QUERY: In this assay, the call recorded for COc1c(Cl)ccc(Cl)c1C(=O)O was what?
RESULT: No

QUERY: In this assay, the call recorded for S=C(S)NCCNC(=S)S.[Mn+2].[S-]C([S-])=NCCN=C([S-])[S-].[Zn+2] was what?
RESULT: No

QUERY: In this assay, the call recorded for O=C(c1ccccc1)C1CCCCC1 was what?
RESULT: No

QUERY: In this assay, the call recorded for COC(=O)c1ccccc1C(=O)O was what?
RESULT: No

QUERY: In this assay, the call recorded for CCC(C)OC(=O)N1CCCCC1CCO (centres undefined) was what?
RESULT: No

QUERY: In this assay, the call recorded for CCOC(=O)c1ccc(O)cc1 was what?
RESULT: No

QUERY: In this assay, the call recorded for Cc1nn(C)c(Oc2ccccc2)c1C=NOCc1ccc(C(=O)OC(C)(C)C)cc1 was what?
RESULT: Yes

QUERY: In this assay, the call recorded for CCCN(CCC)C(=O)SCC was what?
RESULT: No

QUERY: In this assay, the call recorded for C#C[C@]1(O)CC[C@H]2[C@@H]3CCC4=CC(=O)CC[C@@H]4[C@H]3CC[C@@]21CC was what?
RESULT: No

QUERY: In this assay, the call recorded for CCCCC(CC)COC(=O)c1ccccc1C(=O)O (centres undefined) was what?
RESULT: No
